- TARGET: Rac GTPase-activating protein 1 (Homo sapiens) (UniProt Q9H0H5)
- Sequence (Q9H0H5 whole entry, looked up): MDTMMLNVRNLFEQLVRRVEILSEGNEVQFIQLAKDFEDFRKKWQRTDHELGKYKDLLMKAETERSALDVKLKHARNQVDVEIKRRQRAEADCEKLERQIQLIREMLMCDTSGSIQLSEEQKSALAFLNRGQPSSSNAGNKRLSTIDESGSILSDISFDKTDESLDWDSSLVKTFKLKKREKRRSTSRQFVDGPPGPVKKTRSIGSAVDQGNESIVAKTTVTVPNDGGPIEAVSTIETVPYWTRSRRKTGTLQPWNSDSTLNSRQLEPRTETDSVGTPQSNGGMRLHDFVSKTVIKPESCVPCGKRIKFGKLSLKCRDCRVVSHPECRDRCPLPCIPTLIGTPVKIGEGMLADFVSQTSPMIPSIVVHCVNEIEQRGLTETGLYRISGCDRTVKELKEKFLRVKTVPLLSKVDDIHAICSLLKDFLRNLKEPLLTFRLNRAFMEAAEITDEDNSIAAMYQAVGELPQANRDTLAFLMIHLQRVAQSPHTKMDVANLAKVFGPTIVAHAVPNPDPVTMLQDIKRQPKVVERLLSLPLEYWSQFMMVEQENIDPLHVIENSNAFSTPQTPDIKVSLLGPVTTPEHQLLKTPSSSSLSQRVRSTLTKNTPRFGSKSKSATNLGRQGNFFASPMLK
- ASSAY OVERVIEW: blockers of MgcRacGAP-driven Rac1 GTP hydrolysis – biochemical, ADP Hunter fluorescence, primary and confirmatory, confirmation (AID 624330);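 also: fluorescence reports GDP produced by GAP-driven GTP hydrolysis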
- RECORDED CONDITIONS: MgcRacGAP-stimulated Rac1 GTP hydrolysis, at 30 µM, stronger effect = higher value, GST-tagged Rac1 F28L mutant substrate
About 2,100 (0.62%) of roughly 340,000 compounds were called active. Not all results are given here. Results with a measured potency or affinity are listed apart.
EXPERIMENTAL ENDPOINT: inhibition (%)
Please give a number only; it is taken to be in %.

{"MOLECULE": "Cc1csc(=O)n1CC(=O)OC(C)C(=O)Nc1ccc(F)c(F)c1F (configuration not stated)", "UNIT": "%", "OBSERVED MEASUREMENT": 7.87}
{"MOLECULE": "Cc1csc(=O)n1CC(=O)OC(C)C(=O)Nc1cccc(Cl)c1 (configuration not stated)", "UNIT": "%", "OBSERVED MEASUREMENT": 5.89}
{"MOLECULE": "CCn1c(SC(C)C)nnc1-c1c[nH]c2ccccc12", "UNIT": "%", "OBSERVED MEASUREMENT": 7.88}
{"MOLECULE": "O=C(O)c1ccc(Nc2ncnc3ccccc23)cc1", "UNIT": "%", "OBSERVED MEASUREMENT": 7.58}
{"MOLECULE": "COCC(C)n1c(C)cc(C(=O)CSc2ncccn2)c1C (configuration not stated)", "UNIT": "%", "OBSERVED MEASUREMENT": 8}

Next:
Note to self: inhibition recorded for CN(CC(=O)Nc1cccc(F)c1)C(=O)Cc1ccsc1 was 8.14
